measurement-kind: pKd
Units for pKd: none; it is -log10 of a concentration expressed in mol/L.

Prompt: Please report pKd with ROCK2 (human) (UniProt O75116) for item COc1ccc(C(=O)NCc2cccc(C(=O)Nc3ccc4c(c3)CNCC4)c2)cc1OC .
Sequence (O75116 whole entry, looked up): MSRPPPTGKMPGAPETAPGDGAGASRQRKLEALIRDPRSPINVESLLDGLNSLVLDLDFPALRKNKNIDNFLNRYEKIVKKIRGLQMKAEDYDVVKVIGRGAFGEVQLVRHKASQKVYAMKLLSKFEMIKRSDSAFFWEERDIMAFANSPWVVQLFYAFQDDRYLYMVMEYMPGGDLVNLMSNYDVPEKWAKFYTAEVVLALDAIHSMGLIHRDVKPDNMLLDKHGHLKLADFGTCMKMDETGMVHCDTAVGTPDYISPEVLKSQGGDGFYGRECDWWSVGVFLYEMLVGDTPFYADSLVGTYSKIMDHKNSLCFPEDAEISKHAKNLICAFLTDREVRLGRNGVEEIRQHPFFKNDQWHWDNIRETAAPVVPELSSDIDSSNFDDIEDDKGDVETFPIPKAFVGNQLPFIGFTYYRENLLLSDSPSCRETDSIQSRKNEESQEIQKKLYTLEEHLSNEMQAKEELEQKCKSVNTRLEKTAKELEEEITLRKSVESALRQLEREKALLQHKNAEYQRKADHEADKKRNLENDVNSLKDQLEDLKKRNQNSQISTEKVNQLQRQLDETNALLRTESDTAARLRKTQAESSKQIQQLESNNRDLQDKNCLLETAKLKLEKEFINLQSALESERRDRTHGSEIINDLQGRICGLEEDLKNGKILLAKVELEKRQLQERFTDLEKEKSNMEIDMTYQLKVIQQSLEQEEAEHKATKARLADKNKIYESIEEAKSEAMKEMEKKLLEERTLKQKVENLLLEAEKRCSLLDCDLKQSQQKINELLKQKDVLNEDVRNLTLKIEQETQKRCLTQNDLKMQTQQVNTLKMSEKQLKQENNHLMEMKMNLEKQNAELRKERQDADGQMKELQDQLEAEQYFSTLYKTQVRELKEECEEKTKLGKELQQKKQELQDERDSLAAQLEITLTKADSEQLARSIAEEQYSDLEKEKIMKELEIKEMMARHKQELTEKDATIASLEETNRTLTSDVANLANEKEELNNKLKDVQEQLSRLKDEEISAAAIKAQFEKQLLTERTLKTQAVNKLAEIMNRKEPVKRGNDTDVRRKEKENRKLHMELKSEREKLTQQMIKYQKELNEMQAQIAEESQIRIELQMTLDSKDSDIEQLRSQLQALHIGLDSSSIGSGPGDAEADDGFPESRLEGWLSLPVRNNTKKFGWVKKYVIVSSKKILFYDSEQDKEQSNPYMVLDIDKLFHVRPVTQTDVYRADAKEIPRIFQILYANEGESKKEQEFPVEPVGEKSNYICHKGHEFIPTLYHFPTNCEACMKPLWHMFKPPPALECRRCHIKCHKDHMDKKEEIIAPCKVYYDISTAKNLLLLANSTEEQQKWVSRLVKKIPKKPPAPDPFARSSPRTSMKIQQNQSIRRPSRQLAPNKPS
Completion: 8.15

----------
target-system: ROCK2 (human) (UniProt O75116)
Rule: IC50 below 60 nM gives y. Equal to or above 60 nM gives n.

Prompt: Check if IC50 falls below 60 nM for COc1ccc(NC(=O)Cc2cccc(NC(=O)CCC3CCCNC3)c2)cc1OC (configuration not stated) .
Completion: y

Prompt: Check if IC50 falls below 60 nM for CN(C)Cc1ccc(NC(=O)c2cccc(CNC(=O)Nc3ccc(C#N)c(Cl)c3)c2)cc1 .
Completion: y

Prompt: Check if IC50 falls below 60 nM for COc1ccc(CC(=O)Nc2cccc(C(=O)NCCC3CCCNC3)c2)cc1OC (configuration not stated) .
Completion: n

Prompt: Check if IC50 falls below 60 nM for CN(C)Cc1ccc(NC(=O)c2cccc(CNC(=O)c3ccc(OC(F)(F)F)c(Cl)c3)c2)cc1 .
Completion: n

Prompt: Check if IC50 falls below 60 nM for N#Cc1ccc(NC(=O)NCc2cccc(C(=O)NCCC3CCNCC3)c2)cc1 .
Completion: n

Prompt: Check if IC50 falls below 60 nM for COc1ccc(C(=O)NCc2cccc(C(=O)Nc3ccc4cnccc4c3)c2)cc1OC .
Completion: n

Prompt: Check if IC50 falls below 60 nM for CN(C)Cc1ccc(NC(=O)c2cccc(CNC(=O)Nc3ccc(C(N)=O)cc3)c2)cc1 .
Completion: y
